Record form. Attribute: IC50. Fill in for each entry.
TARGET: Avi-KRAS G12V (1-169) GppNHp/RAF1 RBD-3xFLAG (52-151) (Homo sapiens, UniProt P01116, G12V)
Construct: Avi-KRAS G12V (1-169)
Sequence (P01116 1-169 isoform P01116-2 G12V): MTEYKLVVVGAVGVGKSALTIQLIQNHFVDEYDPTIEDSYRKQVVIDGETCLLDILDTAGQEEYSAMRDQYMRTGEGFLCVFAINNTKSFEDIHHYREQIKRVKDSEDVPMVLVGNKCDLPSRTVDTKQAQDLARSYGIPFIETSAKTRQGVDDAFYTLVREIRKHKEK
MEASUREMENT_DESCRIPTION: Raf1-KRAS G12V-GppNHP disruption HTRF assay (Biological Example 1)
Type: binding
COND: KRAS G12V, GppNHp-loaded; class symbols

Please report the measured IC50 for CCN(c1nc(OC[C@@]23CCCN2C[C@H](F)C3)nc2c(F)c(-c3ccc(F)c4sc(N)c(C#N)c34)c(C(F)(F)F)cc12)[C@H]1CCN(C(=O)c2ccnn2C)C1 (atropisomer, axis not shown)
< 100 nM

Recall and state the measured IC50 for CCN(c1nc(OC[C@]23C[C@@H](F)CN2CC2(CC2)C3)nc2c(F)c(-c3ccc(F)c4sc(N)c(C#N)c34)c(C(F)(F)F)cc12)[C@H]1CCN(C(=O)C(C)C)C1 .
100 to 1000 nM

Dear colleague, please send me the reported IC50 for CCN(c1nc(OC[C@@]23CCCN2C[C@H](F)C3)nc2c(F)c(-c3ccc(F)c4sc(N)c(C#N)c34)c(C(F)(F)F)cc12)[C@H]1CCN(C(=O)N(C)C2COC2)C1 (atropisomer, axis not shown) when you can.
< 100 nM

State its IC50 for this molecule: CCN(c1nc(OC[C@@]23CCCN2C[C@H](F)C3)nc2c(F)c(-c3ccc(F)c4sc(N)c(C#N)c34)c(C(F)(F)F)cc12)[C@H]1CCN(C(=O)OC2CC(F)C2)C1 (some centres unmarked) [Compound 787]
< 100 nM

Consider the molecule CCN(c1nc(OC[C@@]23CCCN2C[C@H](F)C3)nc2c(F)c(-c3ccc(F)c4sc(N)c(C#N)c34)c(C(F)(F)F)cc12)[C@H]1CCN(C(=O)OC2CC(F)C2)C1 (some centres unmarked) [Compound 776] and give its recorded IC50.
100 to 1000 nM
